// reported Maximum blood pressure, difference after the administration per item
system: Deoxycorticosteroneacetate (DOCA)/saline hypertension rats (DHR); assay: Hypo-tensive effect, Deoxycorticosteroneacetate (DOCA)/saline hypertension rats (DHR), tail-cuff method; format: in vivo, rat; settings: 30 mg/kg oral, 1 hour, mean ± standard deviation
Quick reminder: number only, in mmHg, skip the unit.

Worked examples, 3 compounds total:
O=c1ccc2cc(OCCCCc3nnnn3C3CCCCC3)ccc2[nH]1 [Compound 7] : -8.4
O=c1ccc2cc(OCCCc3nnnn3CC3CCCCC3)ccc2[nH]1 [Compound 5] : -10.7
O=c1ccc2cc(OCCCc3nnnn3C3CCCCCCC3)ccc2[nH]1 [Compound 6] : -9.2

# input for lookup
Name the recorded Maximum blood pressure, difference after the administration of the compound listed here: O=c1ccc2cc(OCCCc3nnnn3C3CCCCC3)ccc2[nH]1 [Compound 1]
-10.1

---

target: cyclic AMP phosphodiesterase (Oryctolagus cuniculus); construct: the supernatant was collected to use it as a crude enzyme solution; from tissue; host or cells: rabbit platelets (from platelet-rich plasma); assay: Obstructive action against cyclic AMP phosphodiesterase; type: biochemical, rabbit; settings: concentration of test compound solution 10^-7 mole; 0.4 μmol cyclic AMP; read-out: Phosphodiesterase obstruction rate
# label = MET if inhibition >= 70% else NOT MET

Take a look at these entries with their results.
CC(C)Cn1c(=O)n(C)c(=O)c2[nH]cnc21 [1-Methyl-3-isobutylxanthine, 1-methyl-3-isobutylxanthine, reference compound] : NOT MET
O=c1ccc2cc(OCCCCc3nnnn3C3CCCCC3)ccc2[nH]1 : MET
O=c1ccc2cc(OCCCc3nnnn3CC3CCCCC3)ccc2[nH]1 : MET
O=c1ccc2cc(OCCCc3nnnn3C3CCCCC3)ccc2[nH]1 : MET

Here is another molecule to look at.
Check this molecule for inhibition at or above 70%: O=c1ccc2cc(OCCCc3nnnn3C3CCCCCCC3)ccc2[nH]1
MET

---

tested on: rabbit platelet (ADP-induced aggregation); assay: Platelet aggregation inhibitory effect, ADP-induced aggregation in rabbit platelet; format: cell-based; settings: Oryctolagus cuniculus, concentration of the test compound solution 10^-5 mole, read-out: Inhibition effect on ADP-induced aggregation in rabbit platelet
// reported inhibition at 10 µM per item
Quick reminder: number only, in %, skip the unit.

Name the recorded inhibition at 10 µM of the molecule listed here: O=c1ccc2cc(OCCCc3nnnn3-c3ccccc3)ccc2[nH]1 [Compound 9]
45.1

---

Molecular target: cyclic AMP phosphodiesterase (Oryctolagus cuniculus, UniProt G1ST54)
Construct: the supernatant was collected to use it as a crude enzyme solution; from tissue; host or cells: rabbit platelets (from platelet-rich plasma)
Sequence (G1ST54 1-1128): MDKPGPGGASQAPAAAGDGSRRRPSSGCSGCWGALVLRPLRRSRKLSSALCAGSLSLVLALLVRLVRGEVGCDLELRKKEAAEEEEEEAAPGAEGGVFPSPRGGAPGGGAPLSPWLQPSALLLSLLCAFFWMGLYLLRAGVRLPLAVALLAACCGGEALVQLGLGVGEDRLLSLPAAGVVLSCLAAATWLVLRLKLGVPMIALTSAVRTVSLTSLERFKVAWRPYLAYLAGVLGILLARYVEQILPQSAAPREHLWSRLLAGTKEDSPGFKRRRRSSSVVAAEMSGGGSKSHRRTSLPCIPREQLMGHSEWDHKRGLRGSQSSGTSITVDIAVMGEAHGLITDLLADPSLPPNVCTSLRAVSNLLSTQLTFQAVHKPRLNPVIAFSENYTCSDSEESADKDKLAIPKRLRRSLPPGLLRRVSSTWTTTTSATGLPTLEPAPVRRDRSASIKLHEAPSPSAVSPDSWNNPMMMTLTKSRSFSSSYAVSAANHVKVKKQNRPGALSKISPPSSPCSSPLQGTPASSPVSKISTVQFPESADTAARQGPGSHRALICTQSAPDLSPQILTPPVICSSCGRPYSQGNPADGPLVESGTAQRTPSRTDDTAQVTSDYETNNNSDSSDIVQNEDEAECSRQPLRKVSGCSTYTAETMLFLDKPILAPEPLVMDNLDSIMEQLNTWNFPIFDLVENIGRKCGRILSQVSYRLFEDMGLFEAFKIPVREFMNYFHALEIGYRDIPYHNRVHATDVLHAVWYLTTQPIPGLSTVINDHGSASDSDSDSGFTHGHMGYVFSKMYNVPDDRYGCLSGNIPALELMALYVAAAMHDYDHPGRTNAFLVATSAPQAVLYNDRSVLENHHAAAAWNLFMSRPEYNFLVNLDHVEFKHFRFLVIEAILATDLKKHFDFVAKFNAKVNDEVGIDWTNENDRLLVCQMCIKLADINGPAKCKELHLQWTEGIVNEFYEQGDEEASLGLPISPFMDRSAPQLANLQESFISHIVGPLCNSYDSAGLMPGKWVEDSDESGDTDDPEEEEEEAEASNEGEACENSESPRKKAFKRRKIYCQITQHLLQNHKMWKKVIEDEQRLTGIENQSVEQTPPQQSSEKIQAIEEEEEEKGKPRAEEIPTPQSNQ
Experiment: Obstructive action against cyclic AMP phosphodiesterase
Format: biochemical, rabbit
Details: concentration of test compound solution 10^-8 mole; 0.4 μmol cyclic AMP; read-out: Phosphodiesterase obstruction rate
// reported inhibition at 0.01 µM per item
Form entry: enter the amount, then its unit.

Worked examples, 2 molecules total:
O=c1ccc2cc(OCCCc3nnnn3CC3CCCCC3)ccc2[nH]1 : 55.2%
O=c1ccc2cc(OCCCc3nnnn3C3CCCCC3)ccc2[nH]1 : 58.4%

Give inhibition at 0.01 µM only, for O=c1ccc2cc(OCCCc3nnnn3C3CCCCCCC3)ccc2[nH]1 , using cyclic AMP phosphodiesterase (Oryctolagus cuniculus, UniProt G1ST54) data.
57.4%

Give inhibition at 0.01 µM only, for O=c1ccc2cc(OCCCCc3nnnn3C3CCCCC3)ccc2[nH]1 , using cyclic AMP phosphodiesterase (Oryctolagus cuniculus, UniProt G1ST54) data.
68.3%

---

// reported inhibition at 0.001 µM per item
target: cyclic AMP phosphodiesterase (Oryctolagus cuniculus); construct: the supernatant was collected to use it as a crude enzyme solution; from tissue; host or cells: rabbit platelets (from platelet-rich plasma); experiment: Obstructive action against cyclic AMP phosphodiesterase; assay type: biochemical, rabbit; conditions: concentration of test compound solution 10^-9 mole; 0.4 μmol cyclic AMP; read-out: Phosphodiesterase obstruction rate
Quick reminder: number only, in %, skip the unit.

Worked examples, 3 compounds total:
O=c1ccc2cc(OCCCc3nnnn3CC3CCCCC3)ccc2[nH]1 : 38.6
O=c1ccc2cc(OCCCc3nnnn3C3CCCCCCC3)ccc2[nH]1 : 36.5
O=c1ccc2cc(OCCCc3nnnn3C3CCCCC3)ccc2[nH]1 : 44.7

# input for lookup
Name the recorded inhibition at 0.001 µM of the compound listed here: O=c1ccc2cc(OCCCCc3nnnn3C3CCCCC3)ccc2[nH]1
50.6

---

// reported inhibition at 10 µM per item
tested on: rabbit platelet (ADP-induced aggregation); test: Platelet aggregation inhibitory effect, ADP-induced aggregation in rabbit platelet; assay type: cell-based; conditions: Oryctolagus cuniculus, concentration of the test compound solution 10^-5 mole, read-out: Inhibition effect on ADP-induced aggregation in rabbit platelet
Quick reminder: number only, in %, skip the unit.

Worked examples, 4 molecules total:
COc1cc(C(=O)N2C(=O)CCc3cc(OCCCc4nnnn4C4CCCCC4)ccc32)cc(OC)c1OC [Compound 16] : 48.4
O=c1ccc2cc(OCCCc3nnnn3Cc3ccccc3)ccc2[nH]1 [Compound 4] : 45.5
CCc1ccc(-n2nnnc2COc2ccc3c(c2)CCC(=O)N3)cc1 [Compound 15] : 38.9
O=c1ccc2cc(OCCCc3nnnn3CC3CCCCC3)ccc2[nH]1 [Compound 5] : 64.1

Name the recorded inhibition at 10 µM of the molecule listed here: O=c1ccc2cc(OCCCCc3nnnn3C3CCCCC3)ccc2[nH]1 [Compound 7]
59.9

---

system: Deoxycorticosteroneacetate (DOCA)/saline hypertension rats (DHR); experiment: Hypo-tensive effect, Deoxycorticosteroneacetate (DOCA)/saline hypertension rats (DHR), tail-cuff method; assay type: in vivo, rat; details: 30 mg/kg oral, 2 hours, mean ± standard deviation
assay_endpoint: Maximum blood pressure, difference after the administration (mmHg)
Quick reminder: number only, in mmHg, skip the unit.

Worked examples, 3 compounds total:
O=c1ccc2cc(OCCCCc3nnnn3C3CCCCC3)ccc2[nH]1 : -11.5
O=c1ccc2cc(OCCCc3nnnn3CC3CCCCC3)ccc2[nH]1 : -15.2
O=c1ccc2cc(OCCCc3nnnn3C3CCCCCCC3)ccc2[nH]1 : -12.0

Name the recorded Maximum blood pressure, difference after the administration of the compound listed here: O=c1ccc2cc(OCCCc3nnnn3C3CCCCC3)ccc2[nH]1
-10.0

---

target: cyclic AMP phosphodiesterase (Oryctolagus cuniculus, UniProt G1ST54); construct: the supernatant was collected to use it as a crude enzyme solution; from tissue; host or cells: rabbit platelets (from platelet-rich plasma); assay: Obstructive action against cyclic AMP phosphodiesterase; type: biochemical, rabbit; conditions: concentration of test compound solution 10^-6 mole; 0.4 μmol cyclic AMP; read-out: Phosphodiesterase obstruction rate
// reported inhibition at 1 µM per item
Quick reminder: number only, in %, skip the unit.

Worked examples, 3 molecules total:
O=c1ccc2cc(OCCCc3nnnn3CC3CCCCC3)ccc2[nH]1 [Compound 5] : 89.9
O=c1ccc2cc(OCCCc3nnnn3C3CCCCCCC3)ccc2[nH]1 [Compound 6] : 88.4
CC(C)Cn1c(=O)n(C)c(=O)c2[nH]cnc21 [1-Methyl-3-isobutylxanthine, 1-methyl-3-isobutylxanthine, reference compound] : 63.4

# input for lookup
Name the recorded inhibition at 1 µM of the molecule listed here: O=c1ccc2cc(OCCCc3nnnn3C3CCCCC3)ccc2[nH]1 [Compound 1]
92.9

Each recorded value in this set is attributed to patent US4277479A.
